# reported inhibition; entries follow
Assay: NOD1 signaling inhibitors, primary screen, cell-based, luminescence, uHTS (AID 1578);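 also: HEK-293T reporter cells stimulated with the NOD1 agonist gamma-tri-DAP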
Settings: NOD1-driven NF-kB luciferase reporter cells, at 4 µM, hits give high values
Screen size: about 290,000 compounds; about 3,000 (1%) were called active. Only a selection was taken, and actives are over-represented in it overall.

{"columns": ["compound", "unit-text", "inhibition"],
 "data": [
  ["O=C(NCc1ccco1)C(c1ccccc1F)N(CC1CCCO1)C(=O)Cn1nnc2ccccc21 (configuration not stated)", "%", -7],
  ["CN(C)S(=O)(=O)c1ccc(N2CCCC2)c(C(=O)Nc2ccccc2N2CCOCC2)c1", "%", -0.9],
  ["COc1ccc(/C(O)=C/c2nc3ccccc3n(-c3ccccc3)c2=O)cc1", "%", -72.6],
  ["Cc1ccc(C(=O)COC(=O)CN2C(=O)C3C4CC(C(Br)C4Br)C3C2=O)cc1 (configuration not stated)", "%", -29.5],
  ["Cc1cc(C2=NNC(=NC3CC3)SC2)c(C)n1-c1ccccc1F", "%", 96.7],
  ["CCCCOc1ccccc1/C=N/NC(=O)CC#N", "%", -26.1],
  ["COCCCN=C1NN=C(c2cc(C)n(-c3ccccc3F)c2C)CS1", "%", 10.1],
  ["NS(=O)(=O)c1ccc(CNC(=O)c2cccnc2Cl)cc1", "%", -10.3],
  ["O=S(=O)(c1ccc2ccccc2c1)N(CC1CO1)c1ccccc1 (configuration not stated)", "%", -30.1],
  ["COc1ccc(-n2c(C)cc(C3=NNC(=NC4CC4)SC3)c2C)cc1", "%", -7.5],
  ["O=C(NCc1ccccc1)C1CCN(c2nc(-c3ccccc3)nc3c2CCC3)CC1", "%", 15.8],
  ["CCOC(=O)C1CCCN(CCC(=O)Nc2cccc(C)c2)C1 (configuration not stated)", "%", -37.8],
  ["Cc1nnc(Nc2ccc(Cl)cc2)n(N)c1=O", "%", -7],
  ["Cc1nc2ccc(Cl)cn2c1C(=O)NN", "%", -35.5],
  ["Cc1cc(C2=NNC(=NC3CC3)SC2)c(C)n1-c1ccccc1", "%", 98.3],
  ["O=C(COC(=O)COc1ccccc1Cl)Nc1ccccc1OC(F)F", "%", -10.4],
  ["Cc1ccc(-n2c(C)cc(C3=NNC(=NC4CC4)SC3)c2C)cc1C", "%", -21.7],
  ["CC(C)(C)c1ccc(NC(=O)N2CCCN(c3ccc([N+](=O)[O-])cn3)CC2)cc1", "%", 0.9],
  ["Cc1cc(C2=NNC(=NC3CC3)SC2)c(C)n1-c1c(C)n(C)n(-c2ccccc2)c1=O", "%", -12.6],
  ["Nc1nonc1-n1nnc(C(=O)N/N=C/c2ccccn2)c1CNc1ccccc1", "%", -11.6],
  ["CCOc1ccc(S(=O)(=O)Nc2cc(C)ccn2)c2ccccc12", "%", 5.2],
  ["COc1ccc(S(=O)(=O)N2CCCOC2CNC(=O)C(=O)NCCc2ccco2)cc1OC (configuration not stated)", "%", -2.3]
]}
